target: PD-L1 antigen (ELISA of Example 2) (human, UniProt Q9NZQ7 19-239, limits assumed); assay: ELISA, signal on PD-L1 antigen over control
Sequence (Q9NZQ7 19-239 limits assumed): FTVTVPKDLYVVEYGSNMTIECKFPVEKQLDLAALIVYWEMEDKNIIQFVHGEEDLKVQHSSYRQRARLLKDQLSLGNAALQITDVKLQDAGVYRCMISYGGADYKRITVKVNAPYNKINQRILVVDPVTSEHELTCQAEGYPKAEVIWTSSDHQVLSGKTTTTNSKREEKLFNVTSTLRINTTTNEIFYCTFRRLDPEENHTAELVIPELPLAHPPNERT
endpoint: A/control
// return just the number, without any unit appended

Recorded results for 4 binders are shown here.
3LIG18 (VHH, PD-L1 VHH) VHH: QVQLQESGGGLVQPGGSLRLSCAASGFNLDPYAIAWFRQAPGKEREEVSCISSSDVGTYYADSVKGRFTISRDNAKKTVYLQMNSLKPEDTAVYYCATDGYYYCSDYPHPLYWGQGTQVTVSS : 40
2LIG35 (VHH, PD-L1 VHH) VHH: QVQLQESGGGLVQPGGSLRLSCAASGFTFSSYGMSWVRQTPGKGPEWVSAIDSGGGSTSYADSVKGRFTTSRDNAKNTLYLQMNSLKPEDTAVYYCAQGYYCSGYGCSDYWGQGTQVTVSS : 8.18
2LIG176 (VHH, PD-L1 VHH) VHH: QVQLQESGGGLVQAGGSLRLSCAASESIFSIEAMGWYRQAPGKQRELVAAIFGGGFTNYADSVKGRFTISRDNANRTVYLQMNSLKPEDTAVYYCNADLVSGSSRLYDYWGQGTQVTVSS : 4.22
3LIG28 (VHH, PD-L1 VHH) VHH: QVQLQESGGGLVQPGGSLRLSCAASGFTLDYYAINWFRQAPGKEREEVSCISSSDGSTYYADSVKGRFTISRDNAKNTVYLQMNSLKPEDTAVYYCATSGWRLCRPTDEYDYLYWGQGTQVTVSS : 33.2

Q: Quick check: A/control of 2LIG189 (VHH, PD-L1 VHH) VHH: QVQLQESGGGLVQAGGSLRLSCAASGKIFSGNDMGWYRQAPGKQRELVGIITSGGITDYADAVKGRFTISRDNAKNMMYLQMNSLKPEDTAVYYCNMRDRTIWWGQGTQVTVSS ?
Result: 12.9
